# System: THRa homodimer (NR concentration 90 nM)
# experimentSummary: PBM binding z-score (relative to random genomic background probes); higher = stronger binding; sequences stand for … in GC…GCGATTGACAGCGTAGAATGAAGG
Label rule, in plain words: PBM binding z-score of -0.03 and up is Criterion met, under -0.03 is Criterion not met.

Decide: is the reported value of PBM binding z-score for TTACCAAGGTGAAAGGTCTTTGATGCACGCCTTG equal to or greater than -0.03?
Criterion met

Decide: is the reported value of PBM binding z-score for ACAGACAGGTGATGAAGGTAACTCAAGCTATCAT equal to or greater than -0.03?
Criterion not met

Decide: is the reported value of PBM binding z-score for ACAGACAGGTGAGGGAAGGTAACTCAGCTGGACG equal to or greater than -0.03?
Criterion not met

Decide: is the reported value of PBM binding z-score for CCTGCTAGCTCAATGGTCAGCTAAAGCAGCTCGC equal to or greater than -0.03?
Criterion not met

Decide: is the reported value of PBM binding z-score for GCTCGAAGGACAAGGTCAGAGCTTTGTCCGTAGA equal to or greater than -0.03?
Criterion met

Decide: is the reported value of PBM binding z-score for TCTAGTTGGTCTCGGAGGTCACACACGACGGGTA equal to or greater than -0.03?
Criterion met

Decide: is the reported value of PBM binding z-score for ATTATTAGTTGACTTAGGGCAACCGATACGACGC equal to or greater than -0.03?
Criterion met

Decide: is the reported value of PBM binding z-score for TCTTGTAGATCAATAGGGGTTAAGAAAGTGCGCT equal to or greater than -0.03?
Criterion met

Decide: is the reported value of PBM binding z-score for CGTCCAAGGTCAGCAGGTCTGTGAAAGCGACGTG equal to or greater than -0.03?
Criterion met

Decide: is the reported value of PBM binding z-score for CCTTACGGGTCAAGGTTAGAGCACGGGTGGTACG equal to or greater than -0.03?
Criterion met

Decide: is the reported value of PBM binding z-score for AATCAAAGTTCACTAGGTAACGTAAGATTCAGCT equal to or greater than -0.03?
Criterion met

Decide: is the reported value of PBM binding z-score for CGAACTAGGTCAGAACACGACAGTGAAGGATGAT equal to or greater than -0.03?
Criterion met

Decide: is the reported value of PBM binding z-score for ATCGAACGGTCGAAGGTGAGTATACCCACCCGAA equal to or greater than -0.03?
Criterion not met

Decide: is the reported value of PBM binding z-score for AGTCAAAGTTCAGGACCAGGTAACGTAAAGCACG equal to or greater than -0.03?
Criterion met

Decide: is the reported value of PBM binding z-score for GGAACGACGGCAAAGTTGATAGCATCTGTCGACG equal to or greater than -0.03?
Criterion not met

Decide: is the reported value of PBM binding z-score for CCTACTGGGCCATCAGGTCATTTATATCAACGTT equal to or greater than -0.03?
Criterion met

Decide: is the reported value of PBM binding z-score for AGAATGAGGTTAAGATCAGCGAAACAGAATACAT equal to or greater than -0.03?
Criterion met

Decide: is the reported value of PBM binding z-score for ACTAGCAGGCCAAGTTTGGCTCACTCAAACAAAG equal to or greater than -0.03?
Criterion not met

Decide: is the reported value of PBM binding z-score for AGTCAAAGTTCAGGACAAGGTAACGTAAAGCACG equal to or greater than -0.03?
Criterion met

Decide: is the reported value of PBM binding z-score for CAACCTAGGTCAGGGCCAGTATAGGAGGAACGTT equal to or greater than -0.03?
Criterion met

Decide: is the reported value of PBM binding z-score for GCTAACGGGTCAAAGGTTATAGCATGAATAGAAT equal to or greater than -0.03?
Criterion not met

Decide: is the reported value of PBM binding z-score for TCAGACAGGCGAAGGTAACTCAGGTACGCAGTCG equal to or greater than -0.03?
Criterion not met

Decide: is the reported value of PBM binding z-score for ACAGACAGGTGAGTGAAGGTAACGCAGCTGGACG equal to or greater than -0.03?
Criterion not met

Decide: is the reported value of PBM binding z-score for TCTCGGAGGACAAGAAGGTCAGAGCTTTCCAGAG equal to or greater than -0.03?
Criterion met

Decide: is the reported value of PBM binding z-score for ATATGAAGGTTAGCTGGGGTCATTCAGACTAGGC equal to or greater than -0.03?
Criterion met

Origin of values: the supplement of paper PMC6555819
